- Tested on: XIP peptide (Xip251-270)
- Protocol: compounds binding XIP fragment 251-270 – biochemical, small-molecule microarray, fluorescence 635/667 nm, 0.5 µg/mL protein, primary screen (AID 1183)
- Experimental Context: fluorescence 635 nm, higher = more signal
Outcome Measure: composite z-score

Prompt line: Input CN1C(=O)C2C=CC(C(O)c3ccc(F)cc3)N(N(c3ccccc3)c3ccccc3)C2C1=O (stereo not drawn) , output reported composite z-score.
Response line: -0.0807

Prompt line: Input C=C(CCCC)/C(=C/C[C@H](OC(C)=O)c1ccccc1OCCO)c1cnc2ccccc2c1 , output reported composite z-score.
Response line: 0.657

Prompt line: Input COC(=O)[C@@]1(Cc2ccccc2)[C@H]2c3cc(C(=O)N4CCCC4)n(Cc4c(CO)[nH]cc(C)c4=O)c3C[C@H]2CN1C(=O)c1ccccc1 , output reported composite z-score.
Response line: 0.704

Prompt line: Input COCC(=C=CC[C@H](O)c1cccc(OCCO)c1)C[C@H](O)c1cc(Cl)cc(Cl)c1O , output reported composite z-score.
Response line: 0.825

Prompt line: Input COCCCNC(=O)[C@@]1(Sc2ccc(C)cc2)CC(=O)N(Cc2ccccc2Cl)[C@@H]1c1ccc(CO)cc1 , output reported composite z-score.
Response line: 0.887

Prompt line: Input CC[C@@H]1C=C(C(=O)O)[C@H](c2ccc(C)cc2)N1S(=O)(=O)c1ccc(C)cc1 , output reported composite z-score.
Response line: 0.468

Prompt line: Input CCOC(=O)C[C@H]1[C@H](OC(=O)c2ccc(C(=O)c3ccccc3)cc2)[C@@H](NC(=O)c2ccccc2)c2cc(OCCCO)ccc2N1C(=O)c1ccccc1 , output reported composite z-score.
Response line: 0.59

Prompt line: Input O=C(CS)NCCCCCNC(=O)[C@@H]1C[C@@H]2C(=O)NCC(=O)N2[C@@H]1c1ccc(O)cc1 , output reported composite z-score.
Response line: 0.352

---

- Assay Target: NADPH oxidase 2 (Homo sapiens) (UniProt P04839)
- Sequence (P04839 whole entry, looked up): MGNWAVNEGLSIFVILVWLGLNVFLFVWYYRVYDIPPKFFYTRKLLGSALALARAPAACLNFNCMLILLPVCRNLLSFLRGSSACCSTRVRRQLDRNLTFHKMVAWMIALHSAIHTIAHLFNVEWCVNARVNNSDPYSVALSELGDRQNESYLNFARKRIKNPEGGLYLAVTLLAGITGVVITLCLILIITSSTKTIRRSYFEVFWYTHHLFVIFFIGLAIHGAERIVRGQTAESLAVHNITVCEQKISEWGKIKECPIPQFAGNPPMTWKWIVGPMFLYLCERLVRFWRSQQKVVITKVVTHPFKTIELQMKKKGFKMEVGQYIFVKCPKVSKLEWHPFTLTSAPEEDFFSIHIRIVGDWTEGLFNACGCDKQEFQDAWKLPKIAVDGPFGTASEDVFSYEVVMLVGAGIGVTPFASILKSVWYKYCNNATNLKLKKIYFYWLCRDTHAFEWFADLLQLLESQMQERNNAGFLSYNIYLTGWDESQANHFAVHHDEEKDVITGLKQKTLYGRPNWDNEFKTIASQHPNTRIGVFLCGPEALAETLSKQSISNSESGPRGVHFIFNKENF
- Protocol: compounds shifting NOX2 Amplex Red fluorescence – cell-based, HEK293-NOX2, PMA-stimulated, NOX inhibitor project, primary screen (AID 1159)
- Experimental Context: 45 min, higher = more signal, called active from +8 up or from −8 down
Provide the recorded z-score for the entries that follow.
Form rule: numeric answer, no unit written next to it.

Prompt line: Input O=C1O[C@@H](c2ccccc2)[C@@H](c2ccccc2)N2[C@@H](c3ccc(OCCO)cc3)[C@]3(C(=O)Nc4ccc(C#CCCO)cc43)[C@@H](C(=O)NC[C@H](O)c3ccccc3)[C@H]12 , output reported z-score.
Response line: 2.21

Prompt line: Input CC1CC/C=C\[C@H]2OC34C=CCN(c5ccc6ccccc6c5)C(=O)[C@H]3N(CCO)C(=O)[C@@H]4C2C(=O)O1 (some centres undefined) , output reported z-score.
Response line: 1.43

Prompt line: Input CC(CO)N1C(=O)[C@@H]2C3C(=O)OCCC/C=C\[C@H]3OC23C=CCN(CCN2CCOCC2)C(=O)[C@@H]13 (some centres undefined) , output reported z-score.
Response line: 0.238

Prompt line: Input O=C(O)[C@@]1(CCS(=O)(=O)c2ccccc2)N=C(c2ccc(OCCCO)cc2)O[C@H]1c1ccccc1 , output reported z-score.
Response line: -0.333

---

- Protocol: growth of efflux-deficient E. coli DRC39 – strain DRC39, OD650, 48 h, E. coli filamentation inducers, primary screen (AID 1179);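 note: screen aims at cell division blockers that make cells filament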
- Experimental Context: E. coli DRC39 delta-acrAB growth, higher = more signal, called active from +8 up or from −8 down
Hi, to clarify the labels: True covers z-score from 0.09 upward, False covers anything below 0.09.

Prompt line: Identify whether the reported z-score of the following molecule is 0.09 or greater: CC(C)NC(=O)[C@@]1(Cc2ccccc2I)c2ccccc2C(=O)N(Cc2ccccc2Cl)[C@H]1c1ccc(CO)cc1
Response line: False

Prompt line: Identify whether the reported z-score of the following molecule is 0.09 or greater: CC[C@@H]1C=C(C(=O)O)[C@H](c2cccc3ccccc23)N1S(=O)(=O)c1ccc(C)cc1
Response line: True

Prompt line: Identify whether the reported z-score of the following molecule is 0.09 or greater: O=C1C2C=CC(C(O)C=Cc3ccc([N+](=O)[O-])cc3)N(Nc3ccccc3F)C2C(=O)N1c1ccccc1 (stereo not drawn)
Response line: False

Prompt line: Identify whether the reported z-score of the following molecule is 0.09 or greater: COc1cc2c(cc1O)C=[N+](Cc1cc3c(cc1Br)OCO3)CC2
Response line: False

Prompt line: Identify whether the reported z-score of the following molecule is 0.09 or greater: COC(=O)C[C@H]1O[C@@H](CCc2ccccc2)[C@@H](C)[C@@H]1[Si](C)(C)c1ccc(OC)cc1
Response line: False

Prompt line: Identify whether the reported z-score of the following molecule is 0.09 or greater: O=C(O)[C@H](Cc1ccccc1)n1cc(-c2ccccc2)nn1
Response line: False

Prompt line: Identify whether the reported z-score of the following molecule is 0.09 or greater: O=C1OCCC=C[C@H]2OC34C=CCN(c5ccc(Cl)cc5)C(=O)[C@H]3N(CCCO)C(=O)[C@@H]4C12 (stereo partly drawn)
Response line: True

Prompt line: Identify whether the reported z-score of the following molecule is 0.09 or greater: C=CC[C@]1(C(N)=O)COC(c2ccc(OCCCO)cc2)=N1
Response line: True

Prompt line: Identify whether the reported z-score of the following molecule is 0.09 or greater: CCOC(=O)C1=CC[C@@H](c2ccc(C(F)(F)F)cc2)N(S(=O)(=O)c2ccc(C)cc2)[C@H]1c1ccccc1
Response line: False

Prompt line: Identify whether the reported z-score of the following molecule is 0.09 or greater: O=C(NCCN1CCOCC1)[C@@H]1c2ccccc2C(=O)N(Cc2cc(C(F)(F)F)cc(C(F)(F)F)c2)[C@H]1c1ccc(CO)cc1
Response line: True

Prompt line: Identify whether the reported z-score of the following molecule is 0.09 or greater: CN1C(=O)C2C=CC(C(O)C=Cc3ccc([N+](=O)[O-])cc3)N(Nc3ccccc3)C2C1=O (stereo not drawn)
Response line: False

Prompt line: Identify whether the reported z-score of the following molecule is 0.09 or greater: NC(=O)N1C(=O)C2C(C1=O)C1C=C(CCCO)C2C(C2CC2)N1Cc1cc2c(cc1Br)OCO2 (stereo not drawn)
Response line: False

Prompt line: Identify whether the reported z-score of the following molecule is 0.09 or greater: COC(=O)[C@]1(Cc2ccccc2)N=C(c2ccc(OCCCO)cc2)O[C@@H]1c1ccccc1N=[N+]=[N-]
Response line: False

Prompt line: Identify whether the reported z-score of the following molecule is 0.09 or greater: CCCCC(=C=CC[C@H](O)c1cccc(OCCO)c1)C[C@H](O)c1ccccn1
Response line: True

Prompt line: Identify whether the reported z-score of the following molecule is 0.09 or greater: CC(C)(C)OC(=O)CC[C@]1(C(=O)NCCN2CCOCC2)COC(c2ccc(OCCCO)cc2)=N1
Response line: True

Prompt line: Identify whether the reported z-score of the following molecule is 0.09 or greater: C=CC[C@@]1(C(=O)N2CCCCC2)N=C(c2ccc(OCCCO)cc2)O[C@@H]1c1ccccc1N=[N+]=[N-]
Response line: False

Prompt line: Identify whether the reported z-score of the following molecule is 0.09 or greater: CCCCC(O)C1C=CC2C(=O)N(C)C(=O)C2N1N1CCCCC1 (stereo not drawn)
Response line: False

Prompt line: Identify whether the reported z-score of the following molecule is 0.09 or greater: COCCOC(=O)N1C(=O)[C@@]2(c3cc(C#Cc4ccc(OC)cc4)ccc31)[C@H](c1ccc(O)cc1)N1[C@H](c3ccccc3)[C@H](c3ccccc3)OC(=O)[C@H]1[C@@H]2C(=O)Nc1nc2ccccc2s1
Response line: False

Prompt line: Identify whether the reported z-score of the following molecule is 0.09 or greater: COCCCNC(=O)[C@]1(Cc2ccccc2)N=C(c2ccc(OCCCO)cc2)O[C@@H]1c1ccccc1CN=[N+]=[N-]
Response line: True

Prompt line: Identify whether the reported z-score of the following molecule is 0.09 or greater: C=C(CCCC)/C(=C/C[C@H](OC(C)=O)c1ccc(OCCO)cc1)c1cnc2ccccc2c1
Response line: True

Prompt line: Identify whether the reported z-score of the following molecule is 0.09 or greater: C#CCN(C/C=C/c1ccccc1)[C@H](CO)c1ccccc1
Response line: False

Prompt line: Identify whether the reported z-score of the following molecule is 0.09 or greater: CC1CC/C=C\[C@H]2OC34C=CCN(Cn5nnc6ccccc65)C(=O)[C@H]3N(CCCCCO)C(=O)[C@@H]4C2C(=O)O1 (stereo partly drawn)
Response line: True

Prompt line: Identify whether the reported z-score of the following molecule is 0.09 or greater: C=CCN1C(=O)[C@]2(Cc3ccccc3)N=C(c3ccc(OCCCO)cc3)O[C@@H]2c2ccccc21
Response line: True

Prompt line: Identify whether the reported z-score of the following molecule is 0.09 or greater: O=C1O[C@@H](c2ccccc2)[C@@H](c2ccccc2)N2[C@@H](c3ccccc3OCCO)[C@]3(C(=O)Nc4ccccc43)[C@@H](C(=O)O)[C@H]12
Response line: False

Prompt line: Identify whether the reported z-score of the following molecule is 0.09 or greater: CC(=O)NCCCC[C@@H]1NC(=O)[C@H]2C[C@@H](C(=O)NCCCCCNC(=O)CS)[C@@H](c3ccc(O)cc3)N2C1=O
Response line: False

Prompt line: Identify whether the reported z-score of the following molecule is 0.09 or greater: CCCCN1CC=CC23O[C@@H]4/C=C\CCCOC(=O)C4[C@H]2C(=O)N(CCCO)[C@@H]3C1=O (stereo partly drawn)
Response line: False

Prompt line: Identify whether the reported z-score of the following molecule is 0.09 or greater: COc1cc(CO)cc(I)c1O[C@H]1C=C(C(=O)NCCO)C[C@@H](N(C(=O)c2cc3ccccc3oc2=O)C2CCCCCC2)[C@@H]1O
Response line: True

Prompt line: Identify whether the reported z-score of the following molecule is 0.09 or greater: COc1ccc([Si](C)(C)[C@H]2[C@H](CC(=O)N3CCC[C@H]3CO)O[C@@]3(C(=O)N(Cc4cccc(N5CCOC5=O)c4)c4ccccc43)[C@@H]2C)cc1
Response line: False

Prompt line: Identify whether the reported z-score of the following molecule is 0.09 or greater: COc1ccccc1CN1C(=O)c2ccccc2[C@@]2(Cc3ccccc3N(CCCN(C)C)C2=O)[C@@H]1c1ccc(CO)cc1
Response line: True

Prompt line: Identify whether the reported z-score of the following molecule is 0.09 or greater: CCOC(=O)C1=C[C@@H](C(C)C)N(S(=O)(=O)c2ccc(C)cc2)[C@H]1c1ccccc1F
Response line: False

Prompt line: Identify whether the reported z-score of the following molecule is 0.09 or greater: Cc1ccc(C2C3C(=O)CC4C(=O)N(c5ccccc5)C(=O)C4C3CN2S(=O)(=O)c2ccc(C)cc2)cc1 (stereo not drawn)
Response line: True

Prompt line: Identify whether the reported z-score of the following molecule is 0.09 or greater: CC(C)Cc1ccc(CN2CC[C@@H](N)C2)cc1
Response line: True
